- assay_method_text: Reagent hydrolysis followed by UV absorbance of the aminobenzoate product
- Assay type: physicochemical
- assay_conditions: pH 8; 37° C.; from half life = 360×exp[−0.102×temperature]; read-out: NMIA hydrolysis half-life
endpoint_name: half-life
Give the value; after it, write the unit.

Please give measured half-life of the following entry: Cn1c(=O)oc(=O)c2ccccc21 [NMIA, N-methylisatoic anhydride] 8.3 min
